src = the supplement of paper PMC7125110

B1: glmS ribozyme (parent)
chain: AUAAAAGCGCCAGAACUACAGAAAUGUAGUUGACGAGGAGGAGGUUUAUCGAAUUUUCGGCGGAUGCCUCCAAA

Variants of: B1
Test: self-cleavage kobs at 640 uM GlcN6P; higher = faster cleavage; RNA array
Condition description: with glucosamine-6-phosphate
This sample holds only a part of the variants without activity.
Readout label: self-cleavage kobs at 640 uM GlcN6P

# Mutant, Result
rows = [
    ("C8G G51U", "< 1e-05 s⁻¹"),
    ("C8U U31G G35U G44A C70U", "< 1e-05 s⁻¹"),
    ("A39C A53G", "0.00157 s⁻¹"),
    ("A12C G38C U49C C50A", "< 1e-05 s⁻¹"),
    ("C16U U55A C68U", "0.000364 s⁻¹"),
    ("G7U A12U G40U U55C C71A", "< 1e-05 s⁻¹"),
    ("A12U A15G C16G U30C A33U A48G G66A", "< 1e-05 s⁻¹"),
    ("G44C C58G C61G", "< 1e-05 s⁻¹"),
    ("A12C C16A", "0.000172 s⁻¹"),
    ("C8U C61G", "< 1e-05 s⁻¹"),
    ("G40A U57C C58A C61U", "< 1e-05 s⁻¹"),
]
